Data provenance: patent US7868026B2

# Measured target: CYP3A4 (Homo sapiens, UniProt P08684)
# Sequence (P08684 whole entry): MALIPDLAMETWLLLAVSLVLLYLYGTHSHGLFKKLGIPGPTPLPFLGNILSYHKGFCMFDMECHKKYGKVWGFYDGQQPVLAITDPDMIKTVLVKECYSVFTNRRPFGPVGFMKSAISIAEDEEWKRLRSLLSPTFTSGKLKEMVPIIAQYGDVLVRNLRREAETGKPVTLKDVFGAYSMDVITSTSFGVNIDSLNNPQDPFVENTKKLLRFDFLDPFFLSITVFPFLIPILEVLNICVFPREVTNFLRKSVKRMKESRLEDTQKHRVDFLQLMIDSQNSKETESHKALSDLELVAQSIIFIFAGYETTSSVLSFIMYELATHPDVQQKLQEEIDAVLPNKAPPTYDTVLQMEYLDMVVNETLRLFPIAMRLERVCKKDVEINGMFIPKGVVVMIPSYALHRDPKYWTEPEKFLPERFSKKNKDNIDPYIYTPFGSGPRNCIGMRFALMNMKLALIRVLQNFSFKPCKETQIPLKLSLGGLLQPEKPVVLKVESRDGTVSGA
# Measurement notes: Determination of compound Kiapp against recombinant CYP3A4 enzyme (BFC fluorescent substrate)
# Assay type: biochemical
# Details: Super. enzyme preparation, read-out: Kiapp (BFC, Super.)
Property name: Ki (nM)

Exercise: Look at this compound and give its reported Ki. CCCCCN(C)C(=O)c1cc(Cl)ccc1S(=O)(=O)Nc1cncc(OC)c1
Solution: 19.4

Exercise: Okay, and Cc1cncc(NS(=O)(=O)c2ccccc2C(=O)N(C)CCc2ccccc2C)c1 ?
Solution: 3.2

Exercise: Okay, and CC(C)(C)OC(=O)N1CCC2(CC1)CN(C(=O)c1ccccc1S(=O)(=O)Nc1cccnc1)C2 ?
Solution: 563

1. Cc1cncc(NS(=O)(=O)c2ccccc2C(=O)N2CCCC(C)(C)C2)c1
2. CN(Cc1ccc(F)c(F)c1)C(=O)c1ccccc1S(=O)(=O)Nc1cccnc1
Exercise: Please compare: 1 and 2 . Report which one has the smaller Ki value. Lab note: record the label of whichever item you select.
Solution: 2

1. O=C(NC1CCCCC1)c1ccccc1S(=O)(=O)Nc1cccnc1
2. CCCCN(C)C(=O)c1ccccc1S(=O)(=O)Nc1cccnc1
Exercise: Could you please tell me which of these two has the higher Ki: 1 or 2 ? Lab note: record the label of whichever item you select.
Solution: 2
(2: 73 nM, 1: 44.6 nM)

1. COc1ccncc1NS(=O)(=O)c1ccccc1C(=O)NCCOc1ccccc1
2. COc1cncc(NS(=O)(=O)c2ccccc2C(=O)N2CCCC(C)(C)C2)c1
Exercise: Please compare: 1 and 2 . Report which one has the smaller Ki value. Lab note: record the label of whichever item you select.
Solution: 2
(2: 6.26 nM, 1: 56.8 nM)
